Attribution: patent US9174980B2

Molecular target: recombinant human FLAP protein (Homo sapiens)
Construct: made in house; host or cells: Sf9 insect cells (membrane fraction, 100,000 x g pellet)
Assay: FLAP binding assay (Scintillation Proximity Assay, displacement of [125I]L-691,831)
Settings: read-out: Human FLAP SPA Binding (IC50 nM)
measure-name: IC50 (nM)

Nc1ncc(-c2ccc(C3(c4nc5ccccc5s4)CCC3)cc2)cn1 | 8.1
NC(=O)Cn1cc(C2(c3ccc(-c4cnc(N)nc4)cc3)CCC2)c2ccccc21 | 7.9

----------
Target: recombinant human FLAP protein (Homo sapiens, UniProt P20292)
Construct: made in house; host or cells: Sf9 insect cells (membrane fraction, 100,000 x g pellet)
Sequence (P20292 whole entry): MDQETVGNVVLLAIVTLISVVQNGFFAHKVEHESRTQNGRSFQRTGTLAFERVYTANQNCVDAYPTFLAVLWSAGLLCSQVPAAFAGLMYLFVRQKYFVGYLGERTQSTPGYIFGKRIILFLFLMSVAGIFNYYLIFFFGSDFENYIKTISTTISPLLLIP
Assay: FLAP binding assay (Scintillation Proximity Assay, displacement of [125I]L-691,831)
Details: read-out: Human FLAP SPA Binding (IC50 nM)
measure-name: IC50 (nM)

Would you please look over these solved cases?
COC(c1ccc(-c2cnc(N)nc2)cc1)(c1nn(C)c2ccccc12)C(C)(C)C (stereo not drawn) | 400
Nc1ncc(-c2ccc(C3(c4c[nH]c5c(C(=O)O)cccc45)CCC3)cc2)cn1 | 1.5
Cc1ccc(-c2nnc(C3(c4ccc(-c5cnc(N)nc5)cc4)CCC3)s2)cn1 | 5.5
CC(C)C(C)(c1ccc(-c2ccc(N)nc2)cc1)c1c[nH]c2ccccc12 (stereo not drawn) | 1.2

I = Nc1ncc(-c2ccc(C3(c4c[nH]c5c(C(=O)N6CC[C@@H](O)C6)cccc45)CCC3)cc2)cn1
II = Cn1cc(-c2[nH]c3ccccc3c2C2(c3ccc(-c4cnc(N)nc4)cc3)CCC2)cn1
Returns the identifier with the smallest measured IC50 among I and II . API: response body contains the label of the selected item. I

----------
Biological target: recombinant human FLAP protein (Homo sapiens)
Construct: made in house; host or cells: Sf9 insect cells (membrane fraction, 100,000 x g pellet)
Assay: FLAP binding assay (Scintillation Proximity Assay, displacement of [125I]L-691,831)
Conditions: read-out: Human FLAP SPA Binding (IC50 nM)
measure-name: IC50 (nM)

Would you please look over these solved cases?
Cc1cn(C(C)(c2ccc(-c3cnc(N)nc3)cc2)C(C)C)c2ccccc12 (centres unmarked) [Example 43] | 30
Nc1ncc(-c2ccc(C3(c4c[nH]c5cnccc45)CCC3)cc2)cn1 [Example 109] | 1.3
Cn1cc(C(c2ccc(-c3cnc(N)nc3)nc2)C(C)(C)C)c2ccccc21 (centres unmarked) [Example 122] | 75
CN(CCS(C)(=O)=O)C(=O)c1cccc2c(C3(c4ccc(-c5cnc(N)nc5)cc4)CCC3)c[nH]c12 [Example 2] | 1.9
CN(C)C(=O)Cn1cc(-c2cc([C@@](C)(c3ccc(-c4cnc(N)nc4)cc3)C3CC3)no2)cn1 [Example 197] | 5.3
Nc1ncc(-c2ccc(C3(c4nnc(-c5ccccc5)o4)CCC3)cc2)cn1 [Example 93] | 29

a = CC(C)C(C)(c1ccc(-c2cnc(N)nc2)cc1)c1nc2ccccc2[nH]1 (centres unmarked) [Example 104]
b = Nc1ncc(-c2ccc(C3(c4c[nH]c5cc(C(=O)N6CCC(O)C6)ccc45)CCC3)cc2)cn1 (centres unmarked) [Example 106]
Returns the identifier with the smallest measured IC50 among a and b . API: response body contains the label of the selected item. b
(b: 0.91 nM, a: 8.6 nM)
